Source listed as patent US20180339041A1.

Target: T1, C-terminally FLAG-tagged human Gas6 recombinant protein (hGas6-F) (human, UniProt Q14393 31-678, gamma-carboxylated glutamic acid residues in the Gla domain (producer cells co-express rat VKOR and human GGCX); positions not given)
T1 construct: also called human Gas6-F; human Gas6 protein
T1 sequence: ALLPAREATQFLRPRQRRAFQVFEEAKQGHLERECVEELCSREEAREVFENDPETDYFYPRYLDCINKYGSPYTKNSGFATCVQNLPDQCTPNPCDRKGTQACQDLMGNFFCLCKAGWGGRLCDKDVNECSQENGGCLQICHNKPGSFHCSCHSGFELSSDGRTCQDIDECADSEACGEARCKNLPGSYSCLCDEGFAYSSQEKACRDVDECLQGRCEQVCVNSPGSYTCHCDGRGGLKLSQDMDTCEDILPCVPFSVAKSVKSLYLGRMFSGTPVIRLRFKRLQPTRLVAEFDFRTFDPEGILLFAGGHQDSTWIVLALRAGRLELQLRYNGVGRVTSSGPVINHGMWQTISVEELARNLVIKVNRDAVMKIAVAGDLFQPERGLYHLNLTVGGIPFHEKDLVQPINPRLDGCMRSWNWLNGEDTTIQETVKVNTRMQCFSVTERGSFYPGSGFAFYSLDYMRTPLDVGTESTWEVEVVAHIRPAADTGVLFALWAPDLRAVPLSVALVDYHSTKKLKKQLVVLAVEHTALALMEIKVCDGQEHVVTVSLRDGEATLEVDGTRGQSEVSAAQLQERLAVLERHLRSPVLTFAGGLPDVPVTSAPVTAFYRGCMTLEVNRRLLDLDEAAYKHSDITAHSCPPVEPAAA
Experiment: SPR Biacore T100, captured antibody, Gas6 analyte, first test
measuredEndpoint: kon

[in] Supply measured kon of hzKM5320 LV1aHV0 antibody (antibody, V domains shown, Humanized; variant human IgG4 constant region (EU S228P, L235E, R409K), human kappa; also called A-03) VH: QVQLVQSGSELKKPGASVKVSCKASGYTFTNYGMNWVRQAPGQGLEWMGWINTETGEPTYSDDFKGRFVFSLDTSVSTAYLQISSLKAEDTAVYYCAREDGYYGTLDYWGQGTTVTVSS VL: DVVMTQSPDSLAVSLGERVTINCKASQSVSNDVAWYQQKPGQSPKLLIYYASNRYTGVPDRFSGSGSGTDFTLTISSLQAEDVAVYFCQQDYSSPWTFGQGTKLEIK in your reply.
[out] > 65700 M⁻¹ s⁻¹

[in] Annotate the binder hzKM5320 LV6HV0 antibody (antibody, V domains shown, Humanized; variant human IgG4 constant region (EU S228P, L235E, R409K), human kappa; also called A-09) VH: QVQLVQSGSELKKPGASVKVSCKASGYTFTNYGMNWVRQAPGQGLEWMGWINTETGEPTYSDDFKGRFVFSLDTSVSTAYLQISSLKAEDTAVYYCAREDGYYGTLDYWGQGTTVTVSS VL: DIVMTQSPDSLAVSAGERVTINCKASQSVSNDVAWYQQKPGQSPKVLIYYASNRYTGVPDRFSGSGSGTDFTFTISSVQAEDVAVYFCQQDYSSPWTFGQGTKLEIK with its measured kon.
[out] > 67200 M⁻¹ s⁻¹

[in] Specify reported kon for the binder shown: hzKM5321 LV7bHV0 antibody (antibody, V domains shown, Humanized; variant human IgG4 constant region (EU S228P, L235E, R409K), human kappa; also called B-10; LV7bHV0) VH: QVHLVQSGSELKKPGASVKISCKASGYTFTNYGMNWVRQAPGQGLEWMGWINTNTGEPTYTEEFKGRFVFSLDTSVTTSYLQISTLKAEDTAVYFCARDEGWFVYWGQGTLVTVSS VL: ETTVTQSPSSLSVSVGDRVTITCITSTDIDDDMNWYQQKPGKAPKLLISEGNTLRPGVPSRFSSSGSGTDFTFTISSTQPEDFADYYCLQTDSVPLTFGQGTKLEIK
[out] > 129000 M⁻¹ s⁻¹

[in] Could you please provide reported kon for hzKM5320 LV5HV3b antibody (antibody, V domains shown, Humanized; variant human IgG4 constant region (EU S228P, L235E, R409K), human kappa; also called A-22) VH: QIQLVQSGSELKKPGASVKISCKASGYTFTNYGMNWVRQAPGQGLEWMGWINTETGEPTYSDDFKGRFVFSLDTSVSTAYLQISSLKAEDTAVYFCAREDGYYGTLDYWGQGTTVTVSS VL: DIVMTQSPDSLAVSLGERVTINCKASQSVSNDVAWYQQKPGQSPKVLIYYASNRYTGVPDRFSGSGSGTDFTFTISSVQAEDVAVYFCQQDYSSPWTFGQGTKLEIK ? Thanks!
[out] > 76300 M⁻¹ s⁻¹

[in] Look up and report measured kon for this entry: hzKM5320 LV0HV0 antibody (antibody, V domains shown, Humanized; variant human IgG4 constant region (EU S228P, L235E, R409K), human kappa; also called A-02) VH: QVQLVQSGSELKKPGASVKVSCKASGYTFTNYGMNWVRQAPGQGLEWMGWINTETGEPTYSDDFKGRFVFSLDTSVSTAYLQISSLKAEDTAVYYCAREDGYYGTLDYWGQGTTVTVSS VL: DVVMTQSPDSLAVSLGERVTINCKASQSVSNDVAWYQQKPGQSPKLLIYYASNRYTGVPDRFSGSGSGTDFTLTISSLQAEDVAVYYCQQDYSSPWTFGQGTKLEIK
[out] > 66800 M⁻¹ s⁻¹
